Data provenance is PubChem BioAssay AID1053181.

- study-target: Trace amine-associated receptor 1 (Homo sapiens) (UniProt Q96RJ0)
- Sequence (Q96RJ0 whole entry, looked up): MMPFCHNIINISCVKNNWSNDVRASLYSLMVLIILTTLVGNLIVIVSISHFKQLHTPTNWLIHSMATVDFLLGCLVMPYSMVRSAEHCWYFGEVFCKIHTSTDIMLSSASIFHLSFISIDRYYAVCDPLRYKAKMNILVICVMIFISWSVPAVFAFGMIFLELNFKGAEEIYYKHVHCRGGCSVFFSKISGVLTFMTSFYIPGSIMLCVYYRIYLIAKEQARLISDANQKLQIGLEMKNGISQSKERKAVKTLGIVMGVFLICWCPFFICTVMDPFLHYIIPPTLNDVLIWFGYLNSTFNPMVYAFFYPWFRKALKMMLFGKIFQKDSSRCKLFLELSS
- test-description: TAAR1 agonists in human receptor cells, SAR follow-up, cell-based, fluorescence, MedChem round 2 (AID 1053181)
- applied-conditions: TAAR1-expressing cells, fluorescence agonist read-out
Active and inactive are the calls of the source. No rule for the calls is given here.
Log the outcome using a class from class 1 = active, class 0 = inactive

Prompt: Field: outcome | Entry: `N#Cc1c(C(F)(F)F)cc(-c2ccc(Cl)cc2)nc1SCC(=O)N1CCCCCC1`
Completion: class 0

* * *

- study-target: Trace amine-associated receptor 1 (Homo sapiens)
- test-description: TAAR1 agonists in human receptor cells, SAR follow-up, cell-based, fluorescence, MedChem round 2 (AID 1053181)
- applied-conditions: TAAR1-expressing cells, fluorescence agonist read-out
attribute-measured: EC50

INSERT INTO assay_data (molecule, attribute_measured, endpoint_result) VALUES
  ('COc1cc(C(=O)CCN2CCC(c3ccccc3)C2)cc(OC)c1OC (stereo unspecified)', 'EC50', '419 nM'),
  ('N#Cc1c(C(F)(F)F)cc(-c2ccc(Cl)cc2)nc1SCC(=O)N1CCCC1', 'EC50', '1070 nM'),
  ('CC(CN1CCCC1Cc1ccccc1)C(=O)c1ccc2c(c1)OCCO2 (stereo unspecified)', 'EC50', '2960 nM'),
  ('O=C(CCN1CCC(c2ccccc2)C1)c1ccccc1 (stereo unspecified)', 'EC50', '765 nM');

Prompt: Query EC50 for `N#Cc1c(C(F)(F)F)cc(-c2ccc(Cl)cc2)nc1SCC(=O)Nc1ncccn1`
Completion: 3.74 nM

Prompt: Kindly indicate its recorded EC50. Item: Cc1ccc(C(=O)CCN2CCC(c3ccccc3)C2)cc1 (stereo unspecified)
Completion: 672 nM
